Consider the following compounds; for each one, report its Selectivity CB1.
- target: human CB1 receptor (Homo sapiens)
- Construct: host or cells: CHO-K1 (Chinese hamster ovary) cells, stably transfected; membranes prepared in house
- Sequence (P21554 whole entry): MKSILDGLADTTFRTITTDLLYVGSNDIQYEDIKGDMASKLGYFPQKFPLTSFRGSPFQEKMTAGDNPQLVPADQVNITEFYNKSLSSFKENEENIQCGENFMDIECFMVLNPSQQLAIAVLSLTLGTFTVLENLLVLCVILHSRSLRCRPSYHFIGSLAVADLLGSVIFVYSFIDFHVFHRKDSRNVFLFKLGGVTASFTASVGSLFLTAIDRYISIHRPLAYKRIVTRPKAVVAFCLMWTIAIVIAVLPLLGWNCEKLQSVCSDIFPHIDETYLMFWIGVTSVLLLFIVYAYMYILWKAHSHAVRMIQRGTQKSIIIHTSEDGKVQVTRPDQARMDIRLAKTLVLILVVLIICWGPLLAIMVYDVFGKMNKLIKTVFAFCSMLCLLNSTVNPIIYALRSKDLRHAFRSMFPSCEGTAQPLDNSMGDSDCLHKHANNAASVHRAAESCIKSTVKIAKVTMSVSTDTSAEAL
- assay-procedure: CB1 radioligand ([3H]CP 55,940) competitive binding assay
- applied-conditions: fold difference in binding affinity, CB1 over CB2; 1.00 = about the same affinity for both receptors
Write down the numeric answer in fold and omit the unit.

State its Selectivity CB1: C=C(C)[C@@H]1CCC(C)=C[C@H]1c1c(O)cc(CCC)c2c1OC(CC(C)=O)(c1ccccc1)OC2=O (stereo partly drawn) [Compound 24d]
1.00

State its Selectivity CB1: C=C(C)C1CCC(C)=CC1c1c(O)cc(CCCCC)c2c1OC(c1ccccc1)OC2=O (stereo not drawn) [Compound 3d]
2.53

State its Selectivity CB1: C=C(C)[C@@H]1CCC(C)=C[C@H]1c1c(O)cc(CCCCC)c2c1OC(CC(C)=O)(c1ccccc1)OC2=O (stereo partly drawn) [Compound 12d]
1.00

State its Selectivity CB1: C=C(C)[C@@H]1CCC(C)=C[C@H]1c1c(O)cc(CCC)c2c1OCOC2=O [Compound 23d]
1.00

State its Selectivity CB1: CCCCCc1cc(O)c(C2C=C(C)CCC2)c2c1C(=O)OC(C)(C)O2 (stereo not drawn) [Compound 2c]
2.76

State its Selectivity CB1: C=C(C)[C@@H]1CCC(C)=C[C@H]1c1c(O)cc(CCCCC)c2c1OCOC2=O [Compound 1d]
1.00
